Reported MIC (μg/mL in CAA/HuS) is given for each of the following molecules.
- Test system: P. aeruginosa
- run.description: Minimal inhibitory concentration (MIC), modified CLSI broth microdilution in CAA or CAA/HuS
- Format: cell-based, Pseudomonas aeruginosa
- cond: CAA supplemented with 25% human serum
measured.metric: MIC (μg/mL in CAA/HuS) (µg/mL)

• GN156: Modified GN4, addition of N-terminal peptide GPRRPRRPGRRAPV, SEQ ID NO: 6 (protein) GPRRPRRPGRRAPVMRTSQRGIDLIKSFEGLRLSAYQDSVGVWTIGYGTTRGVTRYMTITVEQAERMLSNDIQRFEPELDRLAKVPLNQNQWDALMSFVYNLGAANLASSTLLKLLNKGDYQGAADQFPRWVNAGGKRLDGLVKRRAAERALFLEPLS = 2
• GN105: Native lysin, GenBank WP_016046696.1, SEQ ID NO: 25 (protein, listed as Pseudomonas aeruginosa) MAVVSEKTAGGRNVLAFLDMLAWSEGTSTIRGSDNGYNVVVGGGLFNGYADHPRLKVYLPRYKVYSTAAGRYQLLSRYWDAYRESLALKGGFTPSNQDLVALQQIKERRSLADIQAGRLADAVQKCSNIWASLPGAGYGQREHSLDDLTAHYLAAGGVLS = 32
• GN3: Native lysin, WP_012273008.1/Lysozyme, SEQ ID NO: 2 (protein, listed as Pseudomonas putida) MRTSQRGLSLIKSFEGLRLQAYQDSVGVWTIGYGTTRGVKAGMKISKDQAERMLLNDVQRFEPEVERLIKVPLNQDQWDALMSFTYNLGAANLESSTLRRLLNAGNYAAAAEQFPRWNKAGGQVLAGLTRRRAAERELFLGAA = 16
• GN37: Native lysin, WP_014102102.1/VanY, SEQ ID NO: 12; first disclosed in WO/2017/049233 (protein, listed as Micavibrio aeruginosavorus) MTYTLSKRSLDNLKGVHPDLVAVVHRAIQLTPVDFAVIEGLRSVSRQKELVAAGASKTMNSRHLTGHAVDLAAYVNGIRWDWPLYDAIAVAVKAAAKELGVAIVWGGDWTTFKDGPHFELDRSKYR = 32
• GN150: Native lysin, WP_034684053.1/VanY, SEQ ID NO: 19 (protein, listed as Acinetobacter sp.) MSFKLGKRSLSNLEGVHPDLIKVVKRAIELTECDFTVTEGLRSKERQAQLLKEKKTTTSNSRHLTGHAVDLAAWVNNTVSWDWKYYYQIADAMKKAASELNVSIDWGGDWKKFKDGPHFELTWSKYPIKGAS = 32
